This collection of values is drawn from patent US20120015961A1.

Target: CYP3A4 (Homo sapiens, UniProt P08684)
Sequence (P08684 whole entry): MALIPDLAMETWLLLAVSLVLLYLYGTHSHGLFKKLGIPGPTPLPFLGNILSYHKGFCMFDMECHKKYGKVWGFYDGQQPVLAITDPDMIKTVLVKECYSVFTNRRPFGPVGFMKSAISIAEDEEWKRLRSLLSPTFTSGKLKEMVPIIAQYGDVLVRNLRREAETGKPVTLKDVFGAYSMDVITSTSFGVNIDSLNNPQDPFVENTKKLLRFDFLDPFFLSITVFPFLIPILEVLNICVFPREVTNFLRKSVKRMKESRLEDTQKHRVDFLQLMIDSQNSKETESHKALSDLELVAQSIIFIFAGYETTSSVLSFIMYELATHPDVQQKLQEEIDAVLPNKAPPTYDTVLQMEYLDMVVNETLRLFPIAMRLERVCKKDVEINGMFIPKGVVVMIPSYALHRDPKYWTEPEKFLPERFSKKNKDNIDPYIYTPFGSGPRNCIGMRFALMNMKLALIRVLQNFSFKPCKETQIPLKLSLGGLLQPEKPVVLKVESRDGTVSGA
PARAMETER: IC50

Notebook entry, CYP3A4 (Homo sapiens, UniProt P08684) assay: IC50 of CO/C(N)=N\C1(c2cccc(NC(=O)c3cnc(C)cn3)c2)CC1 = ?
> 20 µM
